Here, each record is paired with measured IC50 data.
# TEST_TARGET: human αVβ3 (Homo sapiens, UniProt P05106+P06756)
# Sequence (P06756 31-992 limits assumed): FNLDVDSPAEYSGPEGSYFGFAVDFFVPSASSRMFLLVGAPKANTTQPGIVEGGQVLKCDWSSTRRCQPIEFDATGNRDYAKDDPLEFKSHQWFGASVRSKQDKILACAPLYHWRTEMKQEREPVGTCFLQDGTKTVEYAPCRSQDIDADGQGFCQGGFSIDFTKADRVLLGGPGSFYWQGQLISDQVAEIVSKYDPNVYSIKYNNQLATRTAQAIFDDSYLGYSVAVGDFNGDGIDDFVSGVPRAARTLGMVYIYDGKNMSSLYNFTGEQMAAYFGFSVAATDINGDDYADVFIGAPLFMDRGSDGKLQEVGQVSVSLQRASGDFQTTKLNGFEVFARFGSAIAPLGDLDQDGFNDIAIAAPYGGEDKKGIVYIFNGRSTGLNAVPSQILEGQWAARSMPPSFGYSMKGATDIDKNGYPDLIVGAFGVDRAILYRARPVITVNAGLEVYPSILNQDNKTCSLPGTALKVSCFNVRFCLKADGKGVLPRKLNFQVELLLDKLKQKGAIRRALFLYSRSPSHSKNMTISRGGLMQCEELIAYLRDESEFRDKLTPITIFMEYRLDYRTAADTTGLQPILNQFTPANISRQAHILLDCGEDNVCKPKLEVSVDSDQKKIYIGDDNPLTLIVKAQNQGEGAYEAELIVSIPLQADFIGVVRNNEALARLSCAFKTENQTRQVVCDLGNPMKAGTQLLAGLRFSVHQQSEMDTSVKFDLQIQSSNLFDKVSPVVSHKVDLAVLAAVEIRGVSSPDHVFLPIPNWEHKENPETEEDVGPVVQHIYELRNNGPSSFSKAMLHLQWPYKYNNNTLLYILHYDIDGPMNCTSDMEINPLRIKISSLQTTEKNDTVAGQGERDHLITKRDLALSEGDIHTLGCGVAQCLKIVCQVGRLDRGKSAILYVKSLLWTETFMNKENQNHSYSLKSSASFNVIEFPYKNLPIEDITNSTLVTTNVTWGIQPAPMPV
# Sequence (P05106 27-718 limits assumed): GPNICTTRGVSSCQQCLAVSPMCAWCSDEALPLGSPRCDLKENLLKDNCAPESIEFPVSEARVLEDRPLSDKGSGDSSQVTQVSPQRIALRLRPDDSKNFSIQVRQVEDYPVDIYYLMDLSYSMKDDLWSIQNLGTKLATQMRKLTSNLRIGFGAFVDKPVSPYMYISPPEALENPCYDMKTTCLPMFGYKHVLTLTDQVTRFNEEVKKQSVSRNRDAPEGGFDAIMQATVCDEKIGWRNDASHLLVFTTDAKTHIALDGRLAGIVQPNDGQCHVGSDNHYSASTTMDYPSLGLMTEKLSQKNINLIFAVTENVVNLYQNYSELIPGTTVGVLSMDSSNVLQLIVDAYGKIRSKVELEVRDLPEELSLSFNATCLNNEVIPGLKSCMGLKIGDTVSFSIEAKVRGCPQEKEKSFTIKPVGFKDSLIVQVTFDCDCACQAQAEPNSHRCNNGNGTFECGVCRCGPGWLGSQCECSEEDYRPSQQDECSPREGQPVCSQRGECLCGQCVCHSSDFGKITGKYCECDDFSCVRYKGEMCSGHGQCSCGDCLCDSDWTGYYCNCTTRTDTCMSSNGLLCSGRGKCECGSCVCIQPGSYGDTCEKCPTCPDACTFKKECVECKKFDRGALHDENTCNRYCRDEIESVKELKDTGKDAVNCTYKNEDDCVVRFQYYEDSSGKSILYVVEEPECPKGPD
# METHOD_NOTES: human αVβ3 HTRF binding assay
Note: a bare number is incomplete; add the unit.

The following compounds have reported results that may help.
>>> df
                                   compound  assay_result
0  COc1ccc(C(CC(=O)O)n2ccc(CCCc3ccc4c(n3)NCCC4)n2)cn1 (single isomer, unassigned) [Example 3]        3.2 nM
1  COc1ccc(C(CC(=O)O)n2ccc(OCCCc3ccc4c(n3)NCCC4)n2)cn1 (racemic)        7.5 nM
2  O=C(O)CC(c1cccc(N2CCOCC2)c1)n1ccc(CCCc2ccc3c(n2)NCCC3)n1 (racemic)        5.5 nM
3  O=C(O)CC(c1ccc2c(c1)CCO2)n1ccc(CCCc2ccc3c(n2)NCCC3)n1 (racemic)         11 nM
4  COc1ccc(C(CC(=O)O)n2ccc(CCCc3ccc4c(n3)NCCC4)n2)cn1 (racemic) [Example 2]        2.7 nM
5  Cc1cc(C)n(-c2cccc(C(CC(=O)O)n3ccc(CCCc4ccc5c(n4)NCCC5)n3)c2)n1 (racemic)        7.5 nM

Q. I have this compound here, COc1ccc(C(CC(=O)O)n2ccc(CCCCc3ccc4c(n3)NCCC4)n2)cn1 (racemic) , and I need its recorded IC50.
A. 2.4 nM

Q. I have this compound here, COc1ccc(C(CC(=O)O)c2nc(CCCCc3ccc4c(n3)NCCC4)cs2)cc1F (single isomer, unassigned) , and I need its recorded IC50.
A. 1.7 nM

Numbers sourced from patent US11884661B2.
